testProtocol: self-splicing fitness, log relative to wild type (ln ratio); higher = more splicing; Tetrahymena group I intron in knt gene, E. coli kanamycin selection, DiMSum; sequences stand for … in CUCUCU…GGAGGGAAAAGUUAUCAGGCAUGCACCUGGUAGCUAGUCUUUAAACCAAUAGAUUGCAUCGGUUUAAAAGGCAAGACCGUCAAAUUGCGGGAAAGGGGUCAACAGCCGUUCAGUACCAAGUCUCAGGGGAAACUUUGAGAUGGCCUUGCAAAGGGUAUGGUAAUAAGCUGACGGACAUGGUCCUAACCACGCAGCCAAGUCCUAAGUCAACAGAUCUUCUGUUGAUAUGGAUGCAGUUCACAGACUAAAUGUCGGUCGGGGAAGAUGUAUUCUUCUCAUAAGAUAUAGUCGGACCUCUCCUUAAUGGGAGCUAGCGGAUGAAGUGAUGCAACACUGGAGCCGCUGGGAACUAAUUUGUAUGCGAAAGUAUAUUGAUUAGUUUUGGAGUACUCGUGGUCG;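 also: selection with 25 µg/mL kanamycin versus none on LB agar overnight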
condition: 37 °C
measuredMetric: self-splicing fitness (ln)

INSERT INTO measurements (recordsequence, measuredmetric, numericvalue) VALUES
  ('AAAGAGCAAUAUUACGCUAA', 'self-splicing fitness (ln)', -1.52),
  ('UGGUAGCAAUAUUACGUGUG', 'self-splicing fitness (ln)', -0.469),
  ('ACCUAGCAAUAUUACGCAAG', 'self-splicing fitness (ln)', -2.2),
  ('CGGGAGCAAUAUUACGCUUA', 'self-splicing fitness (ln)', -2.87),
  ('GAUAAGCAAUAUUACGAAGG', 'self-splicing fitness (ln)', -1.86),
  ('CGGAAGCAAUAUUACGGAGU', 'self-splicing fitness (ln)', -2.12),
  ('CGCUAGCAAUAUUACGAGGU', 'self-splicing fitness (ln)', -2.58),
  ('CCAGAGCAAUAUUACGAUAG', 'self-splicing fitness (ln)', -1),
  ('UCGGAGCAAUAUUACGGUAG', 'self-splicing fitness (ln)', -2.8),
  ('CCUAAGCAAUAUUACGAAAU', 'self-splicing fitness (ln)', -2.77),
  ('CCCCAGCAAUAUUACGGAGA', 'self-splicing fitness (ln)', -1.61),
  ('UAAGAGCAAUAUUACGAACG', 'self-splicing fitness (ln)', -2.57),
  ('GACUAGCAAUAUUACGGACU', 'self-splicing fitness (ln)', -0.611),
  ('GCUUAGCAAUAUUACGCUUA', 'self-splicing fitness (ln)', -0.925),
  ('CAGUAGCAAUAUUACGUCCU', 'self-splicing fitness (ln)', -1.43),
  ('CAGAAGCAAUAUUACGAGCC', 'self-splicing fitness (ln)', -1.82),
  ('ACGUAGCAAUAUUACGUCAA', 'self-splicing fitness (ln)', -2.34),
  ('CAUGAGCAAUAUUACGACGA', 'self-splicing fitness (ln)', -1.85),
  ('GUACAGCAAUAUUACGUUAA', 'self-splicing fitness (ln)', -1.98),
  ('ACACAGCAAUAUUACGCAGU', 'self-splicing fitness (ln)', -2.73),
  ('UCUGAGCAAUAUUACGCGUU', 'self-splicing fitness (ln)', -2.63),
  ('UGUAAGCAAUAUUACGCGUA', 'self-splicing fitness (ln)', -0.754),
  ('CUGUAGCAAUAUUACGCCUU', 'self-splicing fitness (ln)', -2.74),
  ('UAACAGCAAUAUUACGAAGC', 'self-splicing fitness (ln)', -2.3),
  ('GGCCAGCAAUAUUACGAGAC', 'self-splicing fitness (ln)', -2.77),
  ('AUUUAGCAAUAUUACGGGCG', 'self-splicing fitness (ln)', -0.764),
  ('UUUCAGCAAUAUUACGAAUU', 'self-splicing fitness (ln)', -0.87),
  ('UAGGAGCAAUAUUACGUUAU', 'self-splicing fitness (ln)', -2.85),
  ('UCGUAGCAAUAUUACGGGGG', 'self-splicing fitness (ln)', -2),
  ('ACCAAGCAAUAUUACGAAAG', 'self-splicing fitness (ln)', -1.78),
  ('GCAAAGCAAUAUUACGAGCG', 'self-splicing fitness (ln)', -0.631),
  ('UCAUAGCAAUAUUACGGCUG', 'self-splicing fitness (ln)', -1.12),
  ('UUGGAGCAAUAUUACGAUGG', 'self-splicing fitness (ln)', -1.54),
  ('GGUGAGCAAUAUUACGACUC', 'self-splicing fitness (ln)', -0.634),
  ('AGGCAGCAAUAUUACGUACA', 'self-splicing fitness (ln)', -0.742),
  ('UGGCAGCAAUAUUACGGGAU', 'self-splicing fitness (ln)', -2.48),
  ('GGGUAGCAAUAUUACGGAAG', 'self-splicing fitness (ln)', -1.87),
  ('AAUAAGCAAUAUUACGUUAA', 'self-splicing fitness (ln)', -0.928),
  ('UCUUAGCAAUAUUACGAGGG', 'self-splicing fitness (ln)', -2.1),
  ('CAAUAGCAAUAUUACGGGCU', 'self-splicing fitness (ln)', -1.4),
  ('UCGUAGCAAUAUUACGCACG', 'self-splicing fitness (ln)', -0.584),
  ('CGUAAGCAAUAUUACGUCUA', 'self-splicing fitness (ln)', -2.03),
  ('AUCAAGCAAUAUUACGUUCU', 'self-splicing fitness (ln)', -0.459),
  ('CCUGAGCAAUAUUACGGGCG', 'self-splicing fitness (ln)', -2.1),
  ('ACUCAGCAAUAUUACGAAAC', 'self-splicing fitness (ln)', -1.43),
  ('GGUGAGCAAUAUUACGUAUA', 'self-splicing fitness (ln)', -3.25),
  ('AAUUAGCAAUAUUACGAUAA', 'self-splicing fitness (ln)', -0.069),
  ('CGCUAGCAAUAUUACGAUGC', 'self-splicing fitness (ln)', -2.58),
  ('UUUAAGCAAUAUUACGAGAG', 'self-splicing fitness (ln)', -1.13),
  ('CACUAGCAAUAUUACGAAAG', 'self-splicing fitness (ln)', -0.136),
  ('GAACAGCAAUAUUACGACCG', 'self-splicing fitness (ln)', -0.315),
  ('GGAAAGCAAUAUUACGUGAG', 'self-splicing fitness (ln)', -0.225),
  ('CCAGAGCAAUAUUACGUGUG', 'self-splicing fitness (ln)', -1.54),
  ('GAAUAGCAAUAUUACGAAGA', 'self-splicing fitness (ln)', -1.45),
  ('ACCAAGCAAUAUUACGCGAC', 'self-splicing fitness (ln)', -1.59),
  ('CGAAAGCAAUAUUACGACAA', 'self-splicing fitness (ln)', -1.63),
  ('GUACAGCAAUAUUACGGUGG', 'self-splicing fitness (ln)', -1.63);
